Reported ratio to parent is given for each of the following variants.
B1: H2-Kb / Ed28 (parent complex)
chain 1: AQSVTQPDARVTVSEGASLQLRCKYSYFGTPYLFWYVQYPRQGLQLLLKYYPGDPVVQGVNGFEAEFSKSNSSFHLRKASVHWSDWAVYFCAVSPGSGGKLTLGAGTRLQVNL
chain 2: DSGVVQSPRHIIKEKGGRSVLTCIPISGHSNVVWYQQTLGKELKFLIQHYEKVERDKGFLPSRFSVQQFDDYHSEMNMSALELEDSAMYFCASSPRASDYTFGSGTRLLVI
chain 3: not shown
chain 4: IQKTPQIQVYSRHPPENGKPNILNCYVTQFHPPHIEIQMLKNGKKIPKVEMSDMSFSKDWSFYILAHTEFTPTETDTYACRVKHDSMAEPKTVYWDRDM
chain 5: SIINFEKL

Variants of: B1
experimentSummary: % of reporter cells activated (NFAT-GFP), raw; also: test concentration or dose not given here

| mutationKey | ratio to parent |
| --- | --- |
| chain 5 L8S | 0.563 |
| chain 5 K7T | 0.115 |
| chain 5 L8I | 1.02 |
| chain 5 I3S | 1.14 |
| chain 5 L8K | 0.584 |
| chain 5 K7M | 0.104 |
| chain 5 I2G | 1.06 |
| chain 5 S1W | 0.723 |
| chain 5 K7D | 0.00937 |
| chain 5 L8E | 0.493 |
| chain 5 I2E | 0.981 |
| chain 5 F5Q | 0.455 |
| chain 5 I3W | 0.592 |
| chain 5 E6G | 0.651 |
| chain 5 F5W | 0.773 |
| chain 5 F5K | 0.56 |

Each recorded value in this set is attributed to paper PMC11480844.
